Sourced from patent US20080076772A1

# assay overview: in vitro
# condition notes: human
experimental endpoint: viability at 5 days, 0.0005 µM (%)

compound | unit string | readout value
COc1cc2c(cc1O)CCN[C@]21CS[C@@H]2c3c(OC(C)=O)c(C)c4c(c3[C@H](COC1=O)N1[C@@H]2[C@H]2c3c(cc(C)c(OC)c3O)C[C@@H]([C@@H]1O)N2C)OCO4 [ecteinascidin 743] | % | 92

###

# Test system: T lymphocytes
# assay overview: Cell viability of purified T lymphocytes (PI staining, flow cytometry)
# Assay type: cell-based, human
# condition notes: Homo sapiens, T-lymphocyte, 48 h
experimental endpoint: IC50 (µM)

chemical string | readout value
COc1cc2c(cc1O)CCN[C@]21CS[C@@H]2c3c(OC(C)=O)c(C)c4c(c3[C@H](COC1=O)N1[C@@H]2[C@H]2c3c(cc(C)c(OC)c3O)C[C@@H]([C@@H]1O)N2C)OCO4 | 0.02

###

# System: blood monocytes
# assay overview: cells
# condition notes: Homo sapiens, Monocyte, 48 h, read-out: lethal dose 50% (IC50), monocyte mortality

chemical string | IC50
COc1cc2c(cc1O)CCN[C@]21CS[C@@H]2c3c(OC(C)=O)c(C)c4c(c3[C@H](COC1=O)N1[C@@H]2[C@H]2c3c(cc(C)c(OC)c3O)C[C@@H]([C@@H]1O)N2C)OCO4 | 2.5 to 5 nM
